target: Neu5Gc(a2-3)Gal(b1-3)[Fuc(a1-4)]GlcNAc; assay: glycan array binding signal (z-score within array); higher = stronger binding; conditions: glycan notation: IUPAC condensed, linker removed
About 410 targets per protein were measured; listed, in parts, are those with the strongest signals and a random draw of the rest.
Reported values of glycan array binding signal (z-score) for individual entries

binder	glycan array binding signal (z-score)
SBD-G4S3-SBD (protein) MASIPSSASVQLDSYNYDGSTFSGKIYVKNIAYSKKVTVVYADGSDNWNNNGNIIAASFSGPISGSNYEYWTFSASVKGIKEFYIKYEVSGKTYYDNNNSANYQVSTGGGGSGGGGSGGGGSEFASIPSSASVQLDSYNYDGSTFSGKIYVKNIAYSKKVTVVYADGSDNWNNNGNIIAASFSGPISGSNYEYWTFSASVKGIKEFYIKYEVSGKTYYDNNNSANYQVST	-0.366
LecB PA7 (Pseudomonas aeruginosa) (protein) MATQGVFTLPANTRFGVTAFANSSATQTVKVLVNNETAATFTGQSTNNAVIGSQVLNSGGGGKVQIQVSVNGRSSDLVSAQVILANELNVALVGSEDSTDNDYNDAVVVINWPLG	2.03
Epa6 (Candida glabrata), Q6DTM7_CANGB (protein) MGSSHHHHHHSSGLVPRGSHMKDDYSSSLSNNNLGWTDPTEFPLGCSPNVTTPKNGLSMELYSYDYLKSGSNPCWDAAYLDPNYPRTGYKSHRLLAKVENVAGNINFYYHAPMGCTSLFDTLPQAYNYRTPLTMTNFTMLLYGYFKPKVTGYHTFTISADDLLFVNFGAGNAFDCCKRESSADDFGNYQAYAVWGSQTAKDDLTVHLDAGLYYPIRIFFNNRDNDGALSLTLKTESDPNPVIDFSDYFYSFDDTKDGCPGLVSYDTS	-0.331
CVNH3T (Magnaporthe grisea) (protein) GSHIGPYGNYAGNFSGSSRDICLDGARLRAECRRGDGGYSTSVIDLNRYLSNDNGHFRWVSGGGGGGGTATVTVQQGDTLRDIGRRFDCDFHEIARRNNIQNEDLIYPGQVLQVPTKGGSGGGAGNFWDSARDVRLVDGGKVLEAELRYSGGWNRSRIYLDEHIGNRNGELIHC	-0.175
Pwp2 (Candida glabrata) (protein) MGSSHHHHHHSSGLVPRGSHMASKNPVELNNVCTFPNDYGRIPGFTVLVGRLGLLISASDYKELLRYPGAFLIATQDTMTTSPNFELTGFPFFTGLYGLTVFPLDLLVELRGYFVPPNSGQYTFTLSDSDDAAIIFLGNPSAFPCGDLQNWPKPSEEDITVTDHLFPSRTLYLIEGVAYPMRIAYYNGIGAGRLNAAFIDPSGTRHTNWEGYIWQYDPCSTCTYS	-0.072
SAG1 (Toxoplasma gondii), P13664 (protein) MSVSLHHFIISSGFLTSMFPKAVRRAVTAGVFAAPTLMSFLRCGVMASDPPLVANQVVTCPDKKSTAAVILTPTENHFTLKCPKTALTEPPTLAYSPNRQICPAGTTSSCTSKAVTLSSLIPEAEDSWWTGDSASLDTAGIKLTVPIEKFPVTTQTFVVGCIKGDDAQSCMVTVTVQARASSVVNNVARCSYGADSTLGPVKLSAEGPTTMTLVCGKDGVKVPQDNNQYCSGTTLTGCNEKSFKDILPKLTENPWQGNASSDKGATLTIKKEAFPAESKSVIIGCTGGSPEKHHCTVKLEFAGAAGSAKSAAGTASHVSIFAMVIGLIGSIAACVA	0.031
